Could you please report measured AC50 for the items listed next?
# test target: UniProt:P29274
# Sequence (P29274 whole entry): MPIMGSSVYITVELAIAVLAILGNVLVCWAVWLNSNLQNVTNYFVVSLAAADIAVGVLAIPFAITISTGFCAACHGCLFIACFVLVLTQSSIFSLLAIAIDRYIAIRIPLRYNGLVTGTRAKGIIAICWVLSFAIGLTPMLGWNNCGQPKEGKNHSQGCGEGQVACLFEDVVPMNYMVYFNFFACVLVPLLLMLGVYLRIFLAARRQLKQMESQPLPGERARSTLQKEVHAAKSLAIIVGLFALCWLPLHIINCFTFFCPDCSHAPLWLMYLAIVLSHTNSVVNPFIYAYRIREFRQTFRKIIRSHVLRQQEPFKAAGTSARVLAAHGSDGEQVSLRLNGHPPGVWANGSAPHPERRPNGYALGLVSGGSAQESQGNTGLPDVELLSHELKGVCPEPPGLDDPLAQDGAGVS

CN(C)CCCN1c2ccccc2CCc2ccccc21 :: > 30 µM
CN[C@]1(c2ccccc2Cl)CCCCC1=O :: > 30 µM
CCCNC(=O)NS(=O)(=O)c1ccc(Cl)cc1 [CHLORPROPAMIDE] :: > 30 µM
O=C1c2ccccc2C(=O)C1c1ccccc1 :: > 10 µM
CCc1cc2c(s1)-n1c(C)nnc1CN=C2c1ccccc1Cl :: > 30 µM

Dear reader, for each entry below, please note its AC50.
1. CN(C)C/C=C/C(=O)Nc1cc2c(Nc3ccc(F)c(Cl)c3)ncnc2cc1O[C@H]1CCOC1
2. CN[C@@H](C)[C@@H](O)c1ccccc1
3. COc1cc(C(=O)OCc2cccc(COC(=O)c3cc(OC)c(OC)c(OC)c3)n2)cc(OC)c1OC
4. CC(C)[C@H](N)C(=O)OCCOCn1cnc2c(=O)[nH]c(N)nc21
5. NS(=O)(=O)c1cc2c(cc1Cl)N=C(CSCc1ccccc1)NS2(=O)=O [BENZTHIAZIDE]
6. Cc1cc(=O)n(-c2ccccc2)n1C [ANTIPYRINE]

[out]
> 30 µM
> 30 µM
> 30 µM
> 30 µM
> 10 µM
> 30 µM

Dear reader, for each entry below, please note its AC50.
1. CC1=C(/C=C/C(C)=C/C=C/C(C)=C/CO)C(C)(C)CCC1
2. CC(CN(C)C)C(C)(O)Cc1ccc(Cl)cc1 (stereo unspecified)
3. CC(=O)[C@H]1CC[C@H]2[C@@H]3C[C@H](C)C4=CC(=O)CC[C@]4(C)[C@H]3[C@@H](O)C[C@]12C

[out]
> 10 µM
> 30 µM
> 10 µM

Dear reader, for each entry below, please note its AC50.
1. CN1Cc2c(N)cccc2C(c2ccccc2)C1 (stereo unspecified)
2. COc1ccc(C2C(=O)c3ccccc3C2=O)cc1
3. CC(C)(Oc1ccc(CCNC(=O)c2ccc(Cl)cc2)cc1)C(=O)O [BEZAFIBRATE]
4. COc1ccc(CN2CCN(C(c3ccc(F)cc3)c3ccc(F)cc3)CC2)c(OC)c1OC

[out]
1: > 30 µM; 2: > 10 µM; 3: > 10 µM; 4: > 30 µM

---

# test target: Sodium-dependent noradrenaline transporter (Homo sapiens, UniProt P23975); further: assay procedure not described here
# Sequence (P23975 whole entry): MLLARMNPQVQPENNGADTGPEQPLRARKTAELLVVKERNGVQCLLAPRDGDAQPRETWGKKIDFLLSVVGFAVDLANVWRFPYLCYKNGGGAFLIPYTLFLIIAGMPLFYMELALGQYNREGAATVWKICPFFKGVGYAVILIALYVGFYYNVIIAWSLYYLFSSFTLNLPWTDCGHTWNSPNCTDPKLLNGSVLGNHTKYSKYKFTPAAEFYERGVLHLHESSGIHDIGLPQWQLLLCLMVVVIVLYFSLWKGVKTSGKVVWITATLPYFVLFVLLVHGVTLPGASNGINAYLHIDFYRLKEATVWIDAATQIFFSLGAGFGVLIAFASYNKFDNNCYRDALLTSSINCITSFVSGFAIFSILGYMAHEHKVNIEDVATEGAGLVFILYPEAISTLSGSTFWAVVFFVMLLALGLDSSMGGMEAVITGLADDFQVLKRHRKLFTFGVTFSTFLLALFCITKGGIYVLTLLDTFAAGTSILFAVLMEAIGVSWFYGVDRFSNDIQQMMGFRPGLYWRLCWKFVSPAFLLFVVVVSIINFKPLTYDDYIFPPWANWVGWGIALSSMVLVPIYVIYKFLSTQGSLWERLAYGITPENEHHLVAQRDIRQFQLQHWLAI
Could you please report measured AC50 for the items listed next?

// below: answered compounds
CCN(CC)CCCC(C)Nc1c2ccc(Cl)cc2nc2ccc(OC)cc12 (stereo not drawn) :: 6.92 µM
C=C(C)CNc1ccc(C(C)C(=O)O)cc1 (stereo not drawn) :: > 30 µM

Dear reader, for each entry below, please note its AC50.
1. CCC[C@H](N[C@@H](C)C(=O)N1[C@H](C(=O)O)C[C@@H]2CCCC[C@@H]21)C(=O)OCC
2. O=C(O)[C@@H]1C[C@@H](O)CN1
3. O=C(/C=C/c1cccc(S(=O)(=O)Nc2ccccc2)c1)NO
4. CC1(C)O[C@@H]2C[C@H]3[C@@H]4C[C@H](F)C5=CC(=O)C=C[C@]5(C)[C@@]4(F)[C@@H](O)C[C@]3(C)[C@]2(C(=O)CO)O1 [FLUOCINOLONE ACETONIDE]

[out]
["> 30 µM", "> 30 µM", "> 30 µM", "> 30 µM"]

Dear reader, for each entry below, please note its AC50.
1. C=C1CC[C@H](O)C/C1=C/C=C1\CCC[C@]2(C)[C@@H]([C@H](C)CCCC(C)C)CC[C@@H]12
2. C#C[C@]1(O)C=C[C@H]2[C@@H]3CCC4=CC(=O)CC[C@@H]4[C@H]3CC[C@@]21CC

[out]
1: > 10 µM; 2: > 30 µM
